Reported inhibition is given for each of the following compounds.
methodSummary: M. tuberculosis growth inhibition, HTS (AID 449762);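 further: bacterial growth assessed after seven days of incubation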
recordedConditions: M. tuberculosis H37Rv growth inhibition, 7H9 media; at 25 µM; hits give high values
The whole screen tested about 330,000 compounds, of which about 1,900 (0.58%) were called active. Not shown: some 4% with an inconclusive outcome. Only a sample is shown. Potency and affinity values are given separately.

{"compound": "COc1cc2c(cc1OC)C1(Nc3c-2c(C)nn3-c2ccccc2)C(=O)Nc2ccccc21 (centres undefined)", "inhibition / %": 9.01}
{"compound": "Cc1ccc(C)c(NC(=S)N(C)C)c1", "inhibition / %": 1.85}
{"compound": "O=C(CN1CCCC1)NN=C(c1ccccc1)c1ccccc1", "inhibition / %": -2.73}
{"compound": "COc1cc(C(=O)NCCC(=O)NCCN2CCCCCC2)cc(OC)c1OC", "inhibition / %": -5.5}

====

methodSummary: M. tuberculosis growth inhibition, HTS (AID 449762);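 further: bacterial growth assessed after seven days of incubation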
recordedConditions: M. tuberculosis H37Rv growth inhibition, 7H9 media; at 25 µM; hits give high values
Screen size: about 330,000 compounds; about 1,900 (0.58%) were called active. Roughly 4% stayed inconclusive and do not appear here. The list is a sample of the results. Measured potencies and affinities stand elsewhere.
Reported inhibition is given for each of the following compounds.
propertyName: inhibition (%)

{"compound": "CCCCSc1nnc(CSc2nc3nc(C)cc(C)n3n2)o1", "valueMeasured": -4.57}
{"compound": "O=C(NCc1ccccn1)C(=O)Nc1cc2c3c(c1)CC(=O)N3CCC2", "valueMeasured": 5.14}
{"compound": "CCN1CCN(C(=O)c2sc3ncnc(N4CCc5ccccc5C4)c3c2C)CC1", "valueMeasured": 1.76}
{"compound": "OCCC1CN(Cc2cccn2-c2cccnc2)CCN1C1CCCCC1 (stereo not drawn)", "valueMeasured": -3.37}
{"compound": "CN1/C(=C\\C(=O)COC(=O)c2ccco2)C(C)(C)c2ccccc21", "valueMeasured": 0.58}
{"compound": "O=C(Nc1cccnc1Cl)c1cc([N+](=O)[O-])ccc1Cl", "valueMeasured": 8.38}
{"compound": "COc1ccccc1-c1nnc(Nc2nc3c(OC)cccc3s2)o1", "valueMeasured": 6.89}
{"compound": "O=C(c1c[nH]c2ccccc12)C(O)C(c1ccccc1)N1CCOCC1 (stereo not drawn)", "valueMeasured": -0.62}
{"compound": "O=Cc1cc(Br)c(OC(=O)N2CCOCC2)c(Br)c1", "valueMeasured": 5.26}
{"compound": "CCN1CCN(C(c2ccc(OC)cc2)C(O)C(=O)c2c[nH]c3ccccc23)CC1 (stereo not drawn)", "valueMeasured": 1.81}
{"compound": "CNCCNC[C@H](Cc1cccc2ccccc12)NCCc1ccccc1", "valueMeasured": -2.82}
{"compound": "C=CCn1c(C)c(/C=C/c2cc[n+](C)cc2)c2ccccc21", "valueMeasured": 0.73}
{"compound": "CCCc1ccc(-c2cc(C(=O)NC3=NCCS3)c3ccccc3n2)cc1", "valueMeasured": -0.06}
{"compound": "CSCC[C@H](NC(=O)OC(C)(C)C)C(=O)NCC1CCC(C(=O)N[C@@H](Cc2ccccc2)C(=O)O)CC1 (stereo partly drawn)", "valueMeasured": 2.33}
{"compound": "Cc1ccc(Nc2ccc(-n3ccnc3)nn2)cc1C", "valueMeasured": -0.37}
{"compound": "COc1ccc(C=O)cc1CN1CCCN(Cc2ccccc2F)S1(=O)=O", "valueMeasured": 9.36}
{"compound": "O=C(OCC(=O)N1CCCC1)c1ccc(Cl)c([N+](=O)[O-])c1", "valueMeasured": -6.77}
{"compound": "Cc1nn(C)c(C)c1/C=C/C(=O)c1ccccc1", "valueMeasured": 7.75}
{"compound": "O=S(=O)(c1ccc(Cl)c(NC(=S)Nc2cccc(O)c2)c1)N1CCOCC1", "valueMeasured": 1.85}
{"compound": "Cc1ccc[n+](CC(=O)/C=C2\\N(C)c3ccccc3C2(C)C)c1", "valueMeasured": -2.49}
{"compound": "CCCSc1nnc(CSc2nc3nc(C)cc(C)n3n2)o1", "valueMeasured": 6.82}
{"compound": "CSCCC(NC(=O)c1ccco1)C(=O)NC1CCC(C)CC1 (stereo not drawn)", "valueMeasured": -5.12}
{"compound": "O=C(OCC(=O)c1c[nH]c2ccccc12)c1cncc(Br)c1", "valueMeasured": -0.17}
